biological target: UniProt P11387; assay: Activity at recombinant top1 (unknown origin) assessed as DNA cleavage using 3'-[32P]-labeled 117-bp DNA as substrate at 0.1 to 100 uM after 20 mins by SDS-PAGE
Sequence (P11387 whole entry): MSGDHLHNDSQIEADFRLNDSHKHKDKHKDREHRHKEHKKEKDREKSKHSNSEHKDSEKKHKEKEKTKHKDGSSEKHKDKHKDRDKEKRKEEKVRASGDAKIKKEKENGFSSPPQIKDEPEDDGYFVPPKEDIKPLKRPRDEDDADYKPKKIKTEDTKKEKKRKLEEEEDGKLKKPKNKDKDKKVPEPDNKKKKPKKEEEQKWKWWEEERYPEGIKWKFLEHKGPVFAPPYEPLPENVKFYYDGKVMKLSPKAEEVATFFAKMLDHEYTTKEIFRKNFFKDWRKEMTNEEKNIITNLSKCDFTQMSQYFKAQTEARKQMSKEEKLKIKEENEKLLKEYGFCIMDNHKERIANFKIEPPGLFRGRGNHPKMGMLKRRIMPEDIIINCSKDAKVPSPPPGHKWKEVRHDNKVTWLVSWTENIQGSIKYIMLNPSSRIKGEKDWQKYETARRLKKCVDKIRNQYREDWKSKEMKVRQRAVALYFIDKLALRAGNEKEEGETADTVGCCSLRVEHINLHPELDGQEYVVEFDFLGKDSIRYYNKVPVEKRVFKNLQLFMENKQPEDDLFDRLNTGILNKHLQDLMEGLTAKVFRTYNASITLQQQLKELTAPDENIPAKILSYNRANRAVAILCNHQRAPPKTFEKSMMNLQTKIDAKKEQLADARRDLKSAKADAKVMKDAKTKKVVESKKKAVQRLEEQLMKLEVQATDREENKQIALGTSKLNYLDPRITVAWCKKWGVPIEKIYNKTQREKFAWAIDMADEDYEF
readout-kind: Activity (%)
Respond numerically; units are % and should not be typed.

// known answers, use as guide
CN(C)CCCn1c2c(c3ncccc3c1=O)C(=O)c1ccccc1-2 :: 50
O=C1c2ccccc2-c2c1c1ccccc1c(=O)n2CCCn1ccnc1 :: 100
NCCCn1c2c(c3ccncc3c1=O)C(=O)c1ccccc1-2 :: 0
O=C1c2ccccc2-c2c1c1cnccc1c(=O)n2CCCn1ccnc1 :: 50
O=C1c2ccccc2-c2c1c1cnccc1c(=O)n2CCCN1CCOCC1 :: 75
CN(C)CCCn1c2c(c3cnccc3c1=O)C(=O)c1ccccc1-2 :: 50
NCCCn1c2c(c3ncccc3c1=O)C(=O)c1ccccc1-2 :: 50
O=C1c2ccccc2-c2c1c1ncccc1c(=O)n2CCCN1CCOCC1 :: 50

Form field - read-out: Activity; system: UniProt P11387; submitted item: `O=C1c2ccccc2-c2c1c1cccnc1c(=O)n2CCCN1CCOCC1` 75

Then this molecule: `O=C1c2ccccc2-c2c1c1cnccc1c(=O)n2C[C@H](O)CO` 20

Then this molecule: `NCCCn1c2c(c3cccnc3c1=O)C(=O)c1ccccc1-2` 50
